- TGT: T1, human CD71 extracellular domain (human, UniProt P02786 89-760, biotinylated)
- T1 construct: extracellular domain; also called hCD71; huCD71 ECD
- TEST_NAME: solution ELISA screen (luminescence)
Parameter: RLU. Scope: all listed entries.
MEASURED_QUANTITY: RLU (RLU)

INSERT INTO results (binder, measured_quantity, unit_name, measured_value) VALUES
  ('SEQ ID NO 209 (designed binder, not shown: small tags and cut ends, also called ABX1198) MLPAPKNLVVSRVTEDSARLSWTAPDAAFDSFYIAYAEPRPDGEAILLQVPGSCRSYDLTGLKPGTEYSVLIHGVKGGLLSSPLTAIFTT', 'RLU', 'RLU', '6.2e+06'),
  ('SEQ ID NO 226 (designed binder, not shown: small tags and cut ends) MLPAPKNLVVSRVTEDSARLSWTAPDAAFDSFYIAYAEPRPDGEAIGLHVPGSERSYDLTGLKPGTEYSVLIHGVKGGLLSSPLTASFTT', 'RLU', 'RLU', '2.15e+06'),
  ('SEQ ID NO 244 (designed binder, not shown: small tags and cut ends) MLPAPKNLVVSRVTEDSARLSWTAPDAAFDSFYIAYAEPRPDGEAISLQVPGSERSYDLTGLKPGTEYSVLIHGVKGGLLSSPLGAHFTT', 'RLU', 'RLU', '1.75e+06'),
  ('SEQ ID NO 268 (designed binder, not shown: small tags and cut ends) MLPAPKNLVVSRVTEDSARLSWTAPDAAFDSFYIAYAEPRPDGEAIYLEVPGSERSYDLTGLKPGTEYSVLIHGVKGGLLSSPLFTT', 'RLU', 'RLU', '2.77e+06'),
  ('SEQ ID NO 252 (designed binder, not shown: small tags and cut ends) MLPAPKNLVVSRVTEDSARLSWTAPDAAFDSFYIAYAEPRPDGEAIVLHVPGSERSYDLTGLKPGTEYSVLIHGVKGGLLSSPLDAFFTT', 'RLU', 'RLU', '4.34e+06'),
  ('SEQ ID NO 248 (designed binder, not shown: small tags and cut ends) MLPAPKNLVVSRVTEDSARLSWTAPDAAFDSFYIAYAEPRPDGEAIWLGVPGSERSYDLTGLKPGTEYSVLIHGVKGGLLSSPLHATFTT', 'RLU', 'RLU', 756000),
  ('SEQ ID NO 240 (designed binder, not shown: small tags and cut ends) MLPAPKNLVVSRVTEDSARLSWTAPDAAFDSFYIAYAEPRPDGEAISLSVPGSERSYDLTGLKPGTEYSVLIHGVKGGLLSSPLHAKFTT', 'RLU', 'RLU', 610000),
  ('SEQ ID NO 251 (designed binder, not shown: small tags and cut ends) MLPAPKNLVVSRVTEDSARLSWTAPDAAFDSFFIGYLEPQPPGEAIGLWVPGSERSYDLTGLKPGTEYNVTIQGVKGGFPSDPLQAVFTT', 'RLU', 'RLU', '2.51e+06'),
  ('SEQ ID NO 267 (designed binder, not shown: small tags and cut ends) MLPAPKNLVVSRVTEDSARLSWTAPDAAFDSFYIAYAEPRPDGEAIGLWVPGSERSYDLTGLKPGTEYSVLIHGVKGGLLSSPLVAYFTT', 'RLU', 'RLU', 573000),
  ('SEQ ID NO 214 (designed binder, not shown: small tags and cut ends) MLPAPKNLVVSRVTEDSARLSWTAPDAAFDSFYIAYAEPRPDGEAIGLQVPGSERSYDLTGLKPGTEYSVLIHGVKGGLLSSPLCAEFTT', 'RLU', 'RLU', 393000),
  ('SEQ ID NO 250 (designed binder, not shown: small tags and cut ends) MLPAPKNLVVSRVTEDSARLSWTAPDAAFDSFYIAYAEPRPDGEAILLRVPGSERSYDLTGLKPGTEYSVLIHGVKGGLLSSPLYAKFTT', 'RLU', 'RLU', 724000),
  ('SEQ ID NO 206 (designed binder, not shown: small tags and cut ends) MLPAPKNLVVSRVTEDSARLSWTAPDAAFDSFYIAYAEPRPDGEAIGLDVPGSERSYDLTGLKPGTEYSVLIHGVKGGLLSSPLSAIFTT', 'RLU', 'RLU', 828000),
  ('SEQ ID NO 223 (designed binder, not shown: small tags and cut ends) MLPAPKNLVVSRVTEDSARLSWTAPDAAFDSFFIGYLEPQPPGEAIGLAVPGSERSYDLTGLKPGTEYNVTIQGVKGGFPSVPLQANFTT', 'RLU', 'RLU', '1.93e+06'),
  ('SEQ ID NO 218 (designed binder, not shown: small tags and cut ends) MLPAPKNLVVSRVTEDSARLSWTAPDAAFDSFYIAYAEPRPDGEAIHLVVPGSERSYDLTGLKPGTEYSVLIHGVKGGLLSSPLSAIFTT', 'RLU', 'RLU', 144000),
  ('SEQ ID NO 270 (designed binder, not shown: small tags and cut ends) MLPAPKNLVVSRVTEDSARLSWTAPDAAFDSFAIEYCETKMCGEAIVLTVPGSERSYDLTGLKPGTEYRVPIPGVKGGTASLPLSAIFTT', 'RLU', 'RLU', '3.32e+06'),
  ('SEQ ID NO 266 (designed binder, not shown: small tags and cut ends) MLPAPKNLVVSRVTEDSARLSWTAPDAAFDSFYIAYAEPRPDGEAIRLQVPGSERSYDLTGLKPGTEYSVLIHGVKGGLLSSPLGASFTT', 'RLU', 'RLU', 418000),
  ('SEQ ID NO 222 (designed binder, not shown: small tags and cut ends) MLPAPKNLVVSRVTEDSARLSWTAPDAAFDSFFIGYLEPQPPGEAIVLDVPGSERSYDLTGLKPGTEYNVTIQGVKGGFPSHPLAAAFTT', 'RLU', 'RLU', '1.47e+06'),
  ('SEQ ID NO 236 (designed binder, not shown: small tags and cut ends) MLPAPKNLVVSRVTEDSARLSWTAPDAAFDSFYIAYAEPRPDGEAILLQVPGSERSYDLTGLKPGTEYSVLIHGVKGGLLSSPLDAEFTT', 'RLU', 'RLU', '4.07e+06');

Origin of values: patent US20220332795A1
